Values were extracted from PubChem BioAssay (NCI).

System: MCF7 breast
Assay: NCI tumour cell line growth inhibition, 48 h
Where a SMILES comes first, the peptide text is derived from it. [ ]: non-standard residue; d: D form. The star is where a group is joined. ξ: configuration not given here. Cbz = O=C(OCc1ccccc1)*; ξK = NCCCCC(N)C(=O)O
endpointName: TGI (µM)

{"compound": "CC1(C)CC(=O)C(Cc2ccccc2)(Cc2ccccc2)C(=O)C1", "endpointName": "TGI", "qualifier": ">", "number": 100}
{"compound": "O=C1C=CC(=O)c2c(O)c(CO)c(CO)c(O)c21", "endpointName": "TGI", "qualifier": "=", "number": 0.337}
{"compound": "NCCCCC(NC(=O)OCc1ccccc1)C(=O)NCC(N)=O (stereo not given) (Cbz-[ξK]-Gly-NH2)", "endpointName": "TGI", "qualifier": ">", "number": 100}
{"compound": "C/C(=N\\NC(=S)NCCNC(=S)N/N=C(\\C)c1ccccn1)c1ccccn1", "endpointName": "TGI", "qualifier": ">", "number": 100}
{"compound": "CCCCC/C=C\\C=C1\\C(=O)C=C[C@@H]1C/C=C\\CCCC(=O)O", "endpointName": "TGI", "qualifier": "=", "number": 12.9}
